Data origin: PubChem BioAssay AID210

tested on: CD2F1 mice, ip Colon 26 adenocarcinoma, median survival T/C; assay: NCI In Vivo Anticancer Drug Screen. Data for tumor model Colon 26 Adenocarcinoma (intraperitoneal) in CD2F1 (CDF1) mice; conditions: endpoint: median survival time; dose: 50.0 mg/kg/injection; schedule: Q04DX003 (ip); vehicle: saline with Tween-80
Toxic doses and inconclusive results are not listed. The calls were made as follows: active = survival T/C of 150% or more; inactive = T/C below 125% in these data.
In this exercise, the only acceptable responses are Y (active), N (inactive)

These recorded examples may help you get a feel for the data.
| compound | target-or-system | category-label |
| --- | --- | --- |
| CCC[P+](c1ccccc1)(c1ccccc1)c1ccccc1 | CD2F1 mice, ip Colon 26 adenocarcinoma, median survival T/C | N |
| CN1C(=O)CC2(CCN(CCCC(=O)c3ccc(F)cc3)CC2)C1=O | CD2F1 mice, ip Colon 26 adenocarcinoma, median survival T/C | N |

Hi, sorry to bother you, what did the test record for `CC/C(=C(/CC)c1ccc(O)cc1)c1ccc(O)cc1` ? N

Hi, sorry to bother you, what did the test record for [I][Hg][CH2]C1COC([CH2][Hg][I])CO1 (stereo not given) ? N

Hi, sorry to bother you, what did the test record for `CC(=O)O[C@@H]1[C@@H](O)C2=C3[C@]4(C)[C@@H]1C(C)(C)C(=O)C[C@@H]4[C@]3(O)[C@H](OC(C)=O)[C@@]1(C[C@@H]1C)C2=O` ? N

Hi, sorry to bother you, what did the test record for `Cc1cc(C)c(-c2cc(O)c(C)cc2O)c(C)c1` ? N

Hi, sorry to bother you, what did the test record for `Cc1ccc(NC(=O)Oc2ccc(Br)cc2Br)c([N+](=O)[O-])c1` ? N

Hi, sorry to bother you, what did the test record for CCOC(C)C(/C=N/NC(N)=S)=NNC(N)=S (stereo not given) ? N

Hi, sorry to bother you, what did the test record for `C=CCNc1ccc(C)cc1` ? N

Hi, sorry to bother you, what did the test record for `C=C/C(C)=C/[C@H](C)C(=O)C[C@H](O)CC1CC(=O)NC(=O)C1` ? N
